- Measurement target: scTOP1 catalytically inactive variant (Saccharomyces cerevisiae) (UniProt P04786)
- Sequence: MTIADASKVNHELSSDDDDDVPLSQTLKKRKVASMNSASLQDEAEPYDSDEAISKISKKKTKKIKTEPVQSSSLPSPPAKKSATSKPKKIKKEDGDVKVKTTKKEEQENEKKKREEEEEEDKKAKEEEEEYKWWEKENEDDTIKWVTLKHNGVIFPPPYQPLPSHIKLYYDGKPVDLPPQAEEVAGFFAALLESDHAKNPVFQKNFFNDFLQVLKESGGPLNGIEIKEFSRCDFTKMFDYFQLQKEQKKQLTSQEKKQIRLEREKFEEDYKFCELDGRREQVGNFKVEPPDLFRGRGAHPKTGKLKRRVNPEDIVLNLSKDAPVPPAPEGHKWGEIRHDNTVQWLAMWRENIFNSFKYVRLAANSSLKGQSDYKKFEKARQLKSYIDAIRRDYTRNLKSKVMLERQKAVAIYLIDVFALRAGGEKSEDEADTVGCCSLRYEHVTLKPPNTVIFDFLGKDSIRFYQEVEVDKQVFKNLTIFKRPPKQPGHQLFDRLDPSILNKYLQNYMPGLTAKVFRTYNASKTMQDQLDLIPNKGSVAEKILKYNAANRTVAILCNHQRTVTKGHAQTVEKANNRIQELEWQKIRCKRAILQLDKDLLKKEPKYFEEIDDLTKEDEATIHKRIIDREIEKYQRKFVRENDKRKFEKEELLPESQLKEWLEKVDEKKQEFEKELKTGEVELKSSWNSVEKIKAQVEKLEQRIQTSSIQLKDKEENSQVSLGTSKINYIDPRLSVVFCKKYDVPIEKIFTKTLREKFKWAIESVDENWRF
- Test protocol: fluorescence anisotropy
- Test conditions: single ribonucleotide rU at position 12 of strand 1; all else DNA; 20 mM Tris pH 8, 66 mM NaCl, 1 mM DTT, 2% glycerol, 0.5 nM DNA, 0-60 nM TOP1, 10 min at 37 C; errors are SEM of 3-5 experiments
pKd: −log10 of the molar value.

# Sequence chain, pKd
data = [
    ("AGCGTTGAAGAUATGTGGCAAAACCTTTGT / ACAAAGGTTTTGCCACATATCTTCAACGCT [Substrate B (rU at cleavage site)]", 8.26),
]
